The reported measurements were obtained from the RNAGym collection of RNA variant scans (doi:10.7554/elife.80360).

Consider the following variants and their measured self-cleavage readings.
B1: CPEB3 Ribozyme (parent)
chain: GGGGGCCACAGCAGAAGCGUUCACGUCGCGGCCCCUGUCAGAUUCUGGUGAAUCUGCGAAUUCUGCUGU

Variants of: B1
measurement-protocol: self-cleavage, relative activity (ratio to wild type); higher = more cleavage; co-transcriptional
readout-label: self-cleavage

variant_spec="U38G A59U" result_value=0.228
variant_spec="U49G G65A" result_value=0.97
variant_spec="A10G U20A" result_value=0.0584
variant_spec="C6G C45G" result_value=0.376
variant_spec="A10C C27G" result_value=0.0915
variant_spec="G11U G48U" result_value=0.939
variant_spec="U38A G58C" result_value=0.921
variant_spec="C12G U36C" result_value=0.669
variant_spec="U49G G68A" result_value=1
variant_spec="G4C U46A" result_value=0.663
variant_spec="C7G C57A" result_value=0.146
